target: [35S]-TBPS binding, rat brain cortical membranes (GABA receptor complex); test: [35S]-TBPS binding (steroid inhibition of TBPS binding); conditions: in the presence of 5 μM GABA, read-out: 35S-TBPS Radioligand Displacement
pIC50: −log10 of the molar value.
endpoint: pIC50

INSERT INTO results (smiles_text, val) VALUES
  ('COC[C@@]1(O)CC[C@H]2[C@@H](CC[C@@H]3[C@@H]2CC[C@]2(C)[C@@H](C(=O)Cn4ccnn4)CC[C@@H]32)C1', '6.30 to 7.00'),
  ('CC[C@@]1(O)CC[C@H]2[C@@H](CC[C@@H]3[C@@H]2CC[C@]2(C)[C@@H](C(=O)Cn4nccn4)CC[C@@H]32)C1', '6.30 to 7.00'),
  ('CC[C@@]1(O)CC[C@H]2[C@@H](CC[C@@H]3[C@@H]2CC[C@]2(C)[C@@H](C(=O)Cn4ccnn4)CC[C@@H]32)C1', '< 6.30');
